// melting point lookup, one value per entry
READOUT_TYPE: melting point

structure_smiles_string=CC(COc1ccc(Oc2ccccc2)cc1)=NO readout_type="melting point" value_reported="59 to 61 °C"
structure_smiles_string=OCc1ccc2oc(-c3ccc(O)cc3)cc2c1 readout_type="melting point" value_reported="248 to 250 °C"
structure_smiles_string=COC(=O)c1ccc(-c2ccc(Cl)cc2)[nH]1 readout_type="melting point" value_reported="177 to 179 °C"
structure_smiles_string=COc1ccc(-c2nc(CCn3ccnc3)nc3cc(OC)c(OC)cc23)cc1OC readout_type="melting point" value_reported="147 to 148 °C"
structure_smiles_string=CCOC(=O)c1cn(C)c2cc(C(C)(C)C)ccc2c1=O readout_type="melting point" value_reported="138 to 140 °C"
structure_smiles_string=O=C(C=Cc1cc(O)c(O)c([N+](=O)[O-])c1)c1ccccc1 readout_type="melting point" value_reported="192 to 195 °C"
structure_smiles_string=CCCn1cnc2c1c(=O)n(CCCCCCOc1ccc(Cl)cc1)c(=O)n2C readout_type="melting point" value_reported="50 to 51 °C"
structure_smiles_string=CC(=O)NC[C@H]1CC[C@H](C(=O)c2cc3c4c(c2)CCN4C(=O)CC3)CC1 readout_type="melting point" value_reported="178 to 180 °C"
structure_smiles_string=O=C(OCc1ccccc1)[C@@H](Cc1ccccc1)NS(=O)(=O)c1ccc2ccccc2c1 readout_type="melting point" value_reported="107 °C"
structure_smiles_string=Oc1ccc(Oc2ccc(Br)cc2F)cc1 readout_type="melting point" value_reported="83.5 to 85 °C"
